# Protocol description: Cellular viability qHTS for adrenocortical cancer (ACC) cell line NCI-H295R (AID 1963990); further: nearly all actives have a fitted effect of over 60% in size
# Recorded conditions: CellTiter-Glo ATP luminescence, 48 h; series mostly up to 46.1 µM
# Source text: PI: Naris Nilubol, MD Surgical Oncology Program, National Cancer Institute (NCI) National Institute of Health (NIH), Bethesda, Maryland Adrenocortical cancer (ACC) is a rare malignancy with poor survival outcomes and few treatment options. Currently, mitotane is the only FDA-approved therapy for ACC. […] Through a quantitative high-throughput drug screen (qHTS), we identified auranofin (AF), a thioredoxin reductase (TXNRD) inhibitor, as a promising candidate drug. […]
Results filed as inconclusive are left out. Activity calls are given as the source filed them. The call rests on the fitted dose curve; in most records, active means well fitted cell-killing curve with a large enough effect; inconclusive means small, poorly fitted or top-dose-only effect; inactive means flat fitted curve, though single readings scatter.
Result category, one only: t (active), f (inactive)

IN: What classification did `CC(/C=C/[C@@H]1C[C@]1(C)c1ccc2c(c1)C(C)(C)CCC2(C)C)=C\C(=O)O` end up with in this test?
OUT: f

IN: Would you kindly repeat that for `NC(=O)c1cccc(-c2cccc(OC(=O)NC3CCCCC3)c2)c1` ?
OUT: f

IN: Would you kindly repeat that for `CN1C(C(=O)Nc2ccccn2)=C(O)c2sc(Cl)cc2S1(=O)=O` ?
OUT: f

IN: Would you kindly repeat that for `CCN1CCCC1=O` ?
OUT: f

IN: Would you kindly repeat that for `Cc1c(N(C)CS(=O)(=O)O)c(=O)n(-c2ccccc2)n1C` ?
OUT: f

IN: Would you kindly repeat that for `CC(=O)OCC(CCn1cnc2cnc(N)nc21)COC(C)=O` ?
OUT: f

IN: Would you kindly repeat that for `O=C(Nc1ccc2c(c1)CCN(Cc1ncn[nH]1)C2)c1ccccc1-c1ccc(C(F)(F)F)cc1` ?
OUT: f

IN: Would you kindly repeat that for `CC(=O)[C@]1(N)Cc2c(O)c3c(c(O)c2[C@@H](O[C@H]2C[C@H](O)[C@H](O)CO2)C1)C(=O)c1ccccc1C3=O` ?
OUT: f

IN: Would you kindly repeat that for `NCCC(O)(P(=O)(O)O)P(=O)(O)O` ?
OUT: f

IN: Would you kindly repeat that for `Cc1cccc(-c2[nH]c(C(C)(C)C)nc2-c2ccc3c(c2)OCO3)n1` ?
OUT: t

IN: Would you kindly repeat that for `Nc1nc(N)c2nc(-c3cccc(Cl)c3)c(N)nc2n1` ?
OUT: t

IN: Would you kindly repeat that for `C[C@]12CCC3=C4CCC(=O)C=C4CC[C@H]3[C@@H]1CC[C@@]2(O)CC#N` ?
OUT: f

* * *

# Protocol description: Quantitative highthroughput screen to assess conditional lethalithy of P12 Ichikawa cells grown in Human Plasma-Like Medium with dialyzed fetal bovine serum (HPLM+ds) (AID 1963879); further: nearly all actives have a fitted effect of over 35% in size
# Recorded conditions: ATP luminescence, 48 h; viability; series mostly up to 45.8 µM
Results filed as inconclusive are left out. Activity calls are given as the source filed them. The call rests on the fitted dose curve; in most records, active means well fitted cell-killing curve with a large enough effect; inconclusive means small, poorly fitted or top-dose-only effect; inactive means flat fitted curve, though single readings scatter.

[
  {
    "Compound smiles": "CC(C)c1ccc2c(c1)c(SC(C)(C)C)c(CC(C)(C)C(=O)O)n2Cc1ccc(Cl)cc1",
    "outcome": "inactive"
  },
  {
    "Compound smiles": "Cn1cc(C[C@@H](N)C(=O)O)c2ccccc21",
    "outcome": "inactive"
  },
  {
    "Compound smiles": "CC1(C)Cc2c(sc(NC(=S)NC(=O)c3ccccc3)c2C(=O)O)CO1",
    "outcome": "inactive"
  }
]

* * *

# Protocol description: Viability qHTS for spleen associated tyrosine kinase inhibitor (SYKi) drug resistant MV4-11 cells (AID 1963824); further: nearly all actives have a fitted effect of over 35% in size
# Recorded conditions: SYKi-resistant MV4-11 viability, CellTiter-Glo, 72 h; series mostly up to 45 µM
Results filed as inconclusive are left out. Active and inactive are the calls of the source. The call rests on the fitted dose curve; in most records, active means well fitted cell-killing curve with a large enough effect; inconclusive means small, poorly fitted or top-dose-only effect, or effect the other way; inactive means no such curve, though single readings can be large or run the other way.
Result category, one only: active, inactive

IN: What classification did `c1ccc2sc(SSc3nc4ccccc4s3)nc2c1` end up with in this test?
OUT: inactive

IN: Would you kindly repeat that for `Cc1onc(-c2ccccc2)c1C(=O)N[C@@H]1C(=O)N2[C@@H]1SC(C)(C)[C@@H]2C(=O)O` ?
OUT: inactive

IN: Would you kindly repeat that for `C[C@H]1CN(C[C@H](Cc2ccccc2)C(=O)NCC(=O)O)CC[C@@]1(C)c1cccc(O)c1` ?
OUT: inactive

IN: Would you kindly repeat that for CC(C)=CCCC1(C)Oc2cc3c(c4c2C2C(O4)C(C)(O)CCC21)CN(C(CCC(=O)O)C(=O)O)C3=O (configuration not stated) ?
OUT: inactive

IN: Would you kindly repeat that for `C[C@H](NC(=O)Cc1cc(F)cc(F)c1)C(=O)N[C@H](C(=O)OC(C)(C)C)c1ccccc1` ?
OUT: active

IN: Would you kindly repeat that for `CCN1/C(=C/C(C)=O)Sc2ccc(OC)cc21` ?
OUT: active

IN: Would you kindly repeat that for `Cc1ccc(C(=O)Nc2ccc(CN3CCN(C)CC3)c(C(F)(F)F)c2)cc1C#Cc1cnc2[nH]ncc2c1` ?
OUT: inactive

IN: Would you kindly repeat that for CC(=O)CCC1=C(C)C(O[C@@H]2O[C@H](CO)[C@@H](O)[C@H](O)[C@H]2O)C(O)CC1(C)C (some centres not stated) ?
OUT: inactive

IN: Would you kindly repeat that for `CCc1cccc(CC)c1-n1c(C=C(C)C)c(C(=O)N2CCNCC2)cc(-c2nc(-c3ccc(C(F)(F)F)cc3)cs2)c1=O` ?
OUT: inactive

IN: Would you kindly repeat that for `COc1ccc(C2=N[C@@H](c3ccc(Cl)cc3)[C@@H](c3ccc(Cl)cc3)N2C(=O)N2CCNC(=O)C2)c(OC(C)C)c1` ?
OUT: active

IN: Would you kindly repeat that for `CSc1ccc(C(=O)/C=C/c2cc(C)c(OC(C)(C)C(=O)O)c(C)c2)cc1` ?
OUT: active

IN: Would you kindly repeat that for `Cc1nc([C@](C)(O)CO)sc1-c1cnc(N)c(O[C@H](C)c2cc(F)ccc2-n2nccn2)c1` ?
OUT: active

* * *

# Protocol description: Quantitative highthroughput screen to assess conditional lethalithy of NOMO1 cells grown in RPMI1640 with dialyzed fetal bovine serum (RPMI+ds) (AID 1963877); further: nearly all actives have a fitted effect of over 30% in size;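 on viability: 100% = DMSO control wells and 0% = empty wells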
# Recorded conditions: NOMO1 in RPMI+dialyzed FBS viability, ATP luminescence, 48 h; series mostly up to 45.8 µM
Records with an inconclusive call do not appear. Active and inactive are the calls of the source. The call rests on the fitted dose curve; in most records, active means well fitted cell-killing curve with a large enough effect; inconclusive means small, poorly fitted or top-dose-only effect; inactive means flat fitted curve, though single readings scatter.
Result category, one only: 1.0 for active, 0.0 for inactive

IN: What classification did `CCC[C@@H]1C[C@@H](C(=O)N[C@@H]([C@H]2O[C@H](SC)[C@H](O)[C@@H](O)[C@H]2O)[C@@H](C)O)N(C)C1` end up with in this test?
OUT: 0.0

IN: Would you kindly repeat that for `Cc1ccc(C(=O)Nc2cccc(C(F)(F)F)c2)cc1Nc1nc(-c2cccnc2)nc2c1cnn2C` ?
OUT: 0.0

IN: Would you kindly repeat that for Cc1ccccc1C(=O)Nc1ccc(C(=O)N2CCCC(O)c3cc(Cl)ccc32)c(C)c1 (stereo unspecified) ?
OUT: 0.0

IN: Would you kindly repeat that for `CCN(CC)CCNC(=O)c1ccc2nc(-c3ccccc3)c(-c3ccc(CN4CCC(n5c(=O)[nH]c6ccccc65)CC4)cc3)nc2c1` ?
OUT: 1.0

IN: Would you kindly repeat that for `CC1(C)CCC[C@@]2(C)[C@@H]1CC[C@@]1(C)OC(=O)C[C@H]21` ?
OUT: 0.0

IN: Would you kindly repeat that for OCC(O)C(O)C(O)CO (stereo unspecified) ?
OUT: 0.0

* * *

# Protocol description: Viability qHTS for spleen associated tyrosine kinase inhibitor (SYKi) drug resistant MV4-11 cells (AID 1963824); further: nearly all actives have a fitted effect of over 35% in size
# Recorded conditions: SYKi-resistant MV4-11 viability, CellTiter-Glo, 72 h; series mostly up to 45 µM
Results filed as inconclusive are left out. Calls of active or inactive are those of the source. The call rests on the fitted dose curve; in most records, active means well fitted cell-killing curve with a large enough effect; inconclusive means small, poorly fitted or top-dose-only effect, or effect the other way; inactive means no such curve, though single readings can be large or run the other way.
Result category, one only: Yes = active, No = inactive

IN: What classification did `C/C=C1\[C@H](O[C@@H]2O[C@H](CO)[C@@H](O)[C@H](O)[C@H]2O)OC=C(C(=O)OCCc2ccc(O)cc2)[C@H]1CC(=O)OCCc1ccc(O)cc1` end up with in this test?
OUT: No

IN: Would you kindly repeat that for `C=CC(=O)N1CC(N2CCN(C(=O)CNc3cc(C4(C)CC4)c(Cl)cc3O)CC2)C1` ?
OUT: Yes

IN: Would you kindly repeat that for CC(C)C1=CC2C(CC[C@]2(C)O)[C@](C)(O)CC1 (stereo partly drawn) ?
OUT: No

IN: Would you kindly repeat that for `CCN(CC)CCCCNc1ncc2cc(-c3c(Cl)cccc3Cl)c(NC(=O)NC(C)(C)C)nc2n1` ?
OUT: Yes

IN: Would you kindly repeat that for CCOC(=O)N1CCC(CN(Cc2ccc(Cl)cc2)Cc2ccc([N+](=O)[O-])s2)C1 (stereo not drawn) ?
OUT: Yes

IN: Would you kindly repeat that for `NC(=O)NC(=O)Cc1ccccc1` ?
OUT: No

IN: Would you kindly repeat that for CC1CCC2C(C)(C)[C@H](O)CC[C@]2(C)C12Cc1c(O)cc3c(c1O2)CN(C(CCC(=O)O)C(=O)O)C3=O (stereo partly drawn) ?
OUT: No

IN: Would you kindly repeat that for `Cc1cccc(C)c1NC(=O)CC12CCCN1CCC2` ?
OUT: No

IN: Would you kindly repeat that for `Cc1ccccc1-c1cc(N2CCN(C)CC2)ncc1N(C)C(=O)C(C)(C)c1cc(C(F)(F)F)cc(C(F)(F)F)c1` ?
OUT: No

IN: Would you kindly repeat that for CC1=CC(=O)OC(C)(CC(C)(O)C(=O)O)C1 (stereo not drawn) ?
OUT: No

IN: Would you kindly repeat that for `O=C(Nc1cccc(Nc2nccc(Nc3cccc(C(F)(F)F)c3)n2)c1)C1CC1` ?
OUT: Yes

IN: Would you kindly repeat that for `Cc1ccc(-n2nc(C(C)(C)C)cc2NC(=O)Nc2ccc(OCCN3CCOCC3)c3ccccc23)cc1` ?
OUT: Yes

IN: Would you kindly repeat that for CC(=O)NC(C)c1cnc(-c2cnc(Oc3ccc(OC(C)C)cc3)s2)s1 (stereo not drawn) ?
OUT: Yes

IN: Would you kindly repeat that for COC1CC(O[C@H]2CC[C@]3(C)C4CC[C@]5(C)C(C6=CC(=O)OC6)=CCC56OC46CC[C@@H]3C2)OC(C)C1O[C@@H]1O[C@H](CO[C@@H]2O[C@H](CO)[C@@H](O)[C@H](O)[C@H]2O)[C@@H](O)[C@H](O)[C@H]1O (stereo partly drawn) ?
OUT: Yes

IN: Would you kindly repeat that for `COc1ccc(NS(=O)(=O)c2ccc(N)cc2)nn1` ?
OUT: No

IN: Would you kindly repeat that for `CN1CCC(c2cn(C)c3ccc(OS(=O)(=O)c4c(F)cccc4F)cc23)CC1` ?
OUT: Yes

IN: Would you kindly repeat that for `Clc1ccc(Nc2nc3ccccc3c3nc(C4CCCCC4)[nH]c23)cc1Cl` ?
OUT: Yes

IN: Would you kindly repeat that for COC(=O)C1C2CC3c4[nH]c5cc(OC)ccc5c4CCN3CC2CC(OC(=O)c2cc(OC)c(OC)c(OC)c2)C1OC (stereo not drawn) ?
OUT: Yes

IN: Would you kindly repeat that for CC(C#N)C(C)O[C@@H]1O[C@H](CO)[C@@H](O)[C@H](O)[C@H]1O (stereo partly drawn) ?
OUT: No

IN: Would you kindly repeat that for C[C@H]1[C@@H](O)[C@H](O)C2[C@]3(C)C([C@@H](O)[C@H]4OC(=O)[C@@H]1[C@@]24C)[C@](C)(O)C=C[C@H]3O[C@@H]1O[C@H](CO)[C@@H](O)[C@H](O)[C@H]1O (stereo partly drawn) ?
OUT: No

IN: Would you kindly repeat that for `Nc1ccc(S(=O)(=O)Nc2cnc3ccccc3n2)cc1` ?
OUT: No

IN: Would you kindly repeat that for `O=C(O)/C=C/c1ccc2occc2c1O[C@@H]1O[C@H](CO)[C@@H](O)[C@H](O)[C@H]1O` ?
OUT: No

IN: Would you kindly repeat that for `Fc1ccc2c(CCNCc3cccc(OCC(F)(F)C(F)F)c3)c[nH]c2c1` ?
OUT: Yes
